TEST METHOD NOTES: inhibitors of VEEV TC-83 cytopathic effect, confirmation, Vero cells (AID 588727)
SETTINGS: VEEV TC-83 cytopathic effect inhibition, at 20 µM; stronger effect = higher value unless noted
About 450 (0.13%) of roughly 350,000 compounds were called active. Not all results are given here. Measured potencies and affinities stand elsewhere.
Parameter inhibition: see the listing below.

| MOLECULE | inhibition (%) |
| --- | --- |
| CN(C)CCCN(C(=O)c1ccc(S(=O)(=O)N2CCc3ccccc32)cc1)c1nc2c(Cl)cccc2s1 | 12.6 |
| CC(C)CCC(=O)N1CCC(N2CCC(C(=O)NCc3ccccn3)CC2)CC1 | 0.93 |
| Cc1ccc(NC(=O)[C@H](Cc2ccccc2)NC(=O)[C@@H]2Cc3ccccc3CN2)c(C)c1 | 1.94 |
| COc1cc2nc(N(CCCN(C)C)C(=O)c3ccc(S(=O)(=O)N4CCc5ccccc54)cc3)sc2cc1OC | 5.52 |
| N/C(CS(=O)(=O)c1ccccc1)=N\OC(=O)c1ccc(F)cc1 | 1.85 |
| Cc1cccc(N(Cc2ccccc2)C(=O)CSC(C)C(=O)Nc2cc(C)on2)c1 (stereo not given) | 7.94 |
| Cc1ccc(NC(=O)[C@H](NC(=O)[C@@H]2Cc3ccccc3CN2)c2ccccc2)c(C)c1 | 1.71 |
| CCOC(=O)C1=C(COC(=O)c2cccc(NC(C)=O)c2)NC(=O)NC1C (stereo not given) | 1.96 |
| CCOc1ccccc1Nc1ccnc2cc(Cl)ccc12 | 0.76 |
| CC(C)C[C@H](NC(=O)[C@@H]1Cc2ccccc2CN1)C(=O)Nc1ccc(C(C)C)cc1 | 0.75 |

====

TEST METHOD NOTES: inhibitors of VEEV TC-83 cytopathic effect, confirmation, Vero cells (AID 588727)
SETTINGS: VEEV TC-83 cytopathic effect inhibition, at 20 µM; stronger effect = higher value unless noted
Out of some 350,000 compounds screened, about 450 (0.13%) were called active. Only a sample is shown. Results with a measured potency or affinity are listed apart.
Classification field: YES = inhibition at or over 10%; NO = inhibition under 10%.

| COMPOUND | QUALITATIVE LABEL |
| --- | --- |
| CC(OC(=O)/C=C/c1cccc(C(F)(F)F)c1)C(=O)NC1CCCCC1C (stereo unspecified) | NO |
| O=C(c1cc(S(=O)(=O)N2CCCCC2)ccc1F)N1CCCCC1 | NO |
| Cc1cc(/C=N\NC(=O)c2cccs2)c(C)n1-c1ccc2ncccc2c1 | YES |
| Cc1ccc(S(=O)(=O)N2C[C@@H](C)[C@]3(C2)[C@H](O)[C@H](OC(=O)NC2CC2)C[C@H]2C(=O)N(c4ccccc4)C(=O)[C@H]23)cc1 | YES |
| CN(Cc1ccccc1)C(=O)CN(C)S(=O)(=O)c1ccc(F)cc1 | NO |
| Cc1cccc(-n2c(C)cc(/C=N\NC(=O)c3ccco3)c2C)c1 | NO |

====

TEST METHOD NOTES: inhibitors of VEEV TC-83 cytopathic effect, confirmation, Vero cells (AID 588727)
SETTINGS: VEEV TC-83 cytopathic effect inhibition, at 20 µM; stronger effect = higher value unless noted
Among all 350,000 compounds or so, about 450 (0.13%) were called active. These entries were drawn from the full list. Results with a measured potency or affinity are listed apart.
Classification field: T = inhibition at or over 3%; F = inhibition under 3%.

| COMPOUND | QUALITATIVE LABEL |
| --- | --- |
| O=C(NCc1cccnc1)/C(=C\c1ccc(-c2ccc(Cl)c(Cl)c2)o1)S(=O)(=O)c1ccccc1 | F |
| CCC(=O)Nc1cc(C(=O)O)ccc1Sc1ccccc1 | F |
| COC(=O)c1cc(S(=O)(=O)N2CCN(c3ccc([N+](=O)[O-])cc3)CC2)c[nH]1 | T |
| Cc1ccc(-n2c(SCC(=O)Nc3cccc(S(N)(=O)=O)c3)nc3ccccc32)cc1 | F |
| Cc1cc2occ(CC(=O)Nc3nnc(C4CC4)s3)c2cc1C | F |
| Cc1ccc2c(CC(=O)Nc3nc(C)cs3)coc2c1 | T |
| O=C(/C=C/c1c(F)cccc1Cl)Nc1ncccn1 | T |
| COc1ccc(Nc2cc(C(=O)NCCCN3CCN(C)CC3)c3ccccc3n2)cc1 | F |
| COc1ccc(CNC(=O)C(C)Sc2nc3ccccc3c(=O)n2CCCN2CCOCC2)cc1 (stereo not given) | F |
| O=S(=O)(NCC1CN(S(=O)(=O)c2c(F)cccc2F)C1)c1ccc2c(c1)OCCO2 | F |
| CCc1ccc(NC(=O)CC2C(=O)N(c3cccc(OC)c3)C(=O)N2CCOC)cc1 (stereo not given) | F |
| CNC(=O)N1c2ccccc2C=Cc2ccccc21 | F |
| Cc1nnc(SCC(=O)Nc2ncc(Cl)cc2Cl)n1Cc1ccccc1 | F |
| Cc1ccc(-c2csc(NC(=O)/C=C/c3cccs3)n2)cc1C | T |
| COc1cccc(NC(=O)[C@H](CC(C)C)NC(=O)[C@@H]2Cc3ccccc3CN2)c1 | F |
| CCc1nnc(NC(=O)Cc2c[nH]c3ccccc23)s1 | F |
| NNc1nc(-c2ccccc2)cc(-c2ccc(Br)cc2)n1 | T |
| NC(=O)CC(NC(=O)Cc1cccc2ccccc12)c1ccc(NCc2ccc(F)c(F)c2)c([N+](=O)[O-])c1 (stereo not given) | F |
| O=C(O)c1cccc(N/N=C/c2cc(Br)cc(Br)c2O)c1 | F |
| Cc1ccc(S(=O)(=O)N(C)c2ccc(C(=O)Nc3c(C)n(C)n(-c4ccccc4)c3=O)cc2)cc1 | F |
| O=C(/C=C/c1cccs1)Nc1nc(-c2ccccc2)cs1 | T |
| CC(=O)Nc1ccc(S(=O)(=O)N2CCC(NC(=O)C(Cc3cccc(F)c3)NC(C)=O)CC2)cc1 (stereo not given) | F |
| CCCCC#Cc1cncc(C(=O)NN)c1 | F |
| FC(F)Oc1ccc(NC(=S)N2CCc3ccccc32)cc1 | F |
| COc1ccc(OCc2cc(/C=N\NC(=O)c3ccccc3)ccc2OC)cc1 | T |
| COc1ccc(OC)c2[nH]c(C(=O)N3CCC(C(=O)O)CC3)cc12 | F |
| O=C(O)c1ccccc1NN=Cc1ccccc1 | F |
| COc1cccc(CC(=O)OCC(=O)NC(C)c2ccc(F)cc2)c1 (stereo not given) | T |
| CCOC(=O)c1sc2nc(C)nc(Nc3ccc(OC)cc3)c2c1C | T |
| Cc1cc(C)cc(-n2ncc3c2CCCC3NC(=O)CCCn2cncn2)c1 (stereo not given) | F |
| NC(=O)N1c2ccccc2C=Cc2ccccc21 | F |
| CCN(CC)c1ccc(-n2cc3c(=O)n(C)c(=O)n(C)c3c2)cc1 | T |
| O=C(/C=C/c1ccccc1Cl)c1ccc(O)cc1 | T |
| Cc1cc2occ(CC(=O)Nc3nccs3)c2cc1C(C)C | F |
| Nc1ccn([C@H]2CS[C@@H](CO)O2)c(=O)n1 | F |
| CC(C)NC(=O)CSc1nc2ccccc2n1-c1ccccc1 | T |
| CC1Sc2ccc(S(=O)(=O)CCC(=O)N3CCCC3)cc2NC1=O (stereo not given) | F |
| COc1ccccc1C(=O)Nc1ccc2c(c1)CCCN2C(=O)c1cccs1 | T |
| Cn1nnnc1SCC(=O)Nc1ncc(Cl)cc1Cl | F |
| O=C(NC(=S)NCCO)c1cn(-c2ccccc2)nc1-c1ccccc1 | F |
| CC(C)(C)NC(=O)CSc1nc2ccccc2n1-c1ccccc1 | T |
| COc1cc2cc(C(=O)O)[nH]c2c(OC)c1OC | F |
| COCCNC(=O)CN(c1ccc(OC)c(OC)c1)S(=O)(=O)c1ccc(C)cc1 | F |
| c1ccc(CSc2ncnc3c2ncn3C2CCCCO2)cc1 (stereo not given) | T |
| COc1cccc(NC(=O)[C@H](Cc2ccccc2)NC(=O)[C@@H]2Cc3ccccc3CN2)c1 | F |

====

TEST METHOD NOTES: inhibitors of VEEV TC-83 cytopathic effect, confirmation, Vero cells (AID 588727)
SETTINGS: VEEV TC-83 cytopathic effect inhibition, at 20 µM; stronger effect = higher value unless noted
Among all 350,000 compounds or so, about 450 (0.13%) were called active. These entries were drawn from the full list. Results with a measured potency or affinity are listed apart.
Classification field: fulfilled = inhibition at or over 2%; not fulfilled = inhibition under 2%.

| COMPOUND | QUALITATIVE LABEL |
| --- | --- |
| C#CCOCCOCCOCCNc1nc(OC)nc(N2CCN(C(=O)[C@H](CCC(=O)O)n3cc(C(N)CO)nn3)CC2)n1 (stereo partly specified) | not fulfilled |
| COc1ccc(/C=C/c2c([N+](=O)[O-])c(=O)n(C)c(=O)n2C)cc1 | not fulfilled |
| Cn1c(=O)c2c(nc(N/N=C/c3c(O)n(C4CCCCC4)c(=S)[nH]c3=O)n2C)n(C)c1=O | not fulfilled |
| COc1ccc(NC(=O)c2nc[nH]c2C(=O)NCC(=O)OC(C)(C)C)cc1 | fulfilled |
| Cc1ccc(S(=O)(=O)NNC(=O)c2sc(NS(=O)(=O)c3ccccc3)nc2C)cc1 | fulfilled |
| O=C1CCC(C(=O)N2CCN(c3ccc(F)cc3)CC2)CN1CC1CCCCC1 (stereo unspecified) | not fulfilled |
| CN(C)c1ccc(/C=C/c2c([N+](=O)[O-])c(=O)n(C)c(=O)n2C)cc1 | not fulfilled |
| COC(=O)c1ccc(N/C(=N/S(=O)(=O)c2ccccc2)c2ccccc2)cc1 | not fulfilled |
| COCOCCn1cc(CN2CCS(=O)(=O)N(Cc3ccc(-c4cccc(CO)c4)cc3)C(CC(C)C)C2=O)nn1 (stereo unspecified) | fulfilled |
| CC(C)[C@H](NS(=O)(=O)c1ccccc1)C(=O)OCC(=O)Nc1cccc(S(N)(=O)=O)c1 | fulfilled |
| Cc1ccc2sc(NNC(=O)C3=COCCO3)nc2c1C | fulfilled |
| CN1CCN(c2nc3c(c(=O)[nH]c(=O)n3C)n2CCOc2ccccc2)CC1 | not fulfilled |
| O=c1ccc(Cl)cn1Cc1ccccc1F | not fulfilled |
| COc1ccccc1N1CCN(C(=S)Nc2ccccc2)CC1 | not fulfilled |
| Cc1sc2nc(CN(Cc3cccs3)C(=O)NC3CCCCC3)[nH]c(=O)c2c1C | fulfilled |
| CCOc1ccc(/C=N/NC(=O)c2ccc(O)cc2)cc1CN1CC2CC(C1)c1cccc(=O)n1C2 (stereo unspecified) | not fulfilled |
| COCCCNC(=S)NCCc1ccc(F)cc1 | not fulfilled |
| C[C@H]1O[C@@H](n2cc(F)c(=O)[nH]c2=O)[C@H](O)[C@@H]1O | fulfilled |
| CCc1ccccc1NC(=O)C1=CN2CCS(=O)(=O)N=C2C=C1 | fulfilled |
| CC1CCCC(=NNC(=O)C2COc3ccccc3O2)C1 (stereo unspecified) | not fulfilled |
| CN1CCN(c2ccc3nccnc3c2)CC1 | not fulfilled |
